As shown below, each of these binders has a reported OD450 value.
# experimental target: T1, Human CD19-his protein (human, UniProt P15391 20-291)
# T1 construct: bought protein; also called human CD19 protein; recombinant human CD19-His; not shown: His tag
# T1 sequence (looked up): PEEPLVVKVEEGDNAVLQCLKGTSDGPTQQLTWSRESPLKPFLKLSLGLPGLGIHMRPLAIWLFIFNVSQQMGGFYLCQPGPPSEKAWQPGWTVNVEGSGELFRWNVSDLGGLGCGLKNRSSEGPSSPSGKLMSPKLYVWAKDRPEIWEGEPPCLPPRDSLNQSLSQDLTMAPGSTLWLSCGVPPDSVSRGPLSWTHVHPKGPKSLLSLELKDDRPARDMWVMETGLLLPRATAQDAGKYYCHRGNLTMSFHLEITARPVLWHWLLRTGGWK
# test summary: ELISA, antibody at 10 nM
Respond using a number only.

{"binder": "F4.180.1 (antibody, human IgG1, V domains shown, human-murine chimeric antibody, human IgG1) VH: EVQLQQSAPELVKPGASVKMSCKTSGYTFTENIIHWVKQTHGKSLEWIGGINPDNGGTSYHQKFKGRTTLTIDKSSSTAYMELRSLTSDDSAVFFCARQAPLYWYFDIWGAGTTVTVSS VL: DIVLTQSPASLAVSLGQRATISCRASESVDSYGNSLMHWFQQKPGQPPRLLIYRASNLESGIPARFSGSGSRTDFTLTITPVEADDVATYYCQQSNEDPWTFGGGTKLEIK", "OD450": 1.92}
{"binder": "F3.40.14 (antibody, human IgG1, V domains shown, human-murine chimeric antibody, human IgG1) VH: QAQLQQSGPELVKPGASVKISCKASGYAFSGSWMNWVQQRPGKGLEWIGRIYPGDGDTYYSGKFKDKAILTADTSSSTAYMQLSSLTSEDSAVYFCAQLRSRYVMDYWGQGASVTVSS VL: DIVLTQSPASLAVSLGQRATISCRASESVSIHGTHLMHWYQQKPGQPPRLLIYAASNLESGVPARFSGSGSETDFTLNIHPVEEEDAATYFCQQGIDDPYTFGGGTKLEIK", "OD450": 1.01}

Consider now this further binder.
OD450 for F4.37.6 (antibody, human IgG1, V domains shown, human-murine chimeric antibody, human IgG1) VH: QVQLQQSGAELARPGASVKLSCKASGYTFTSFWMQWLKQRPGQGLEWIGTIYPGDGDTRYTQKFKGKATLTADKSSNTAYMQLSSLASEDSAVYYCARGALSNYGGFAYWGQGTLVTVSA VL: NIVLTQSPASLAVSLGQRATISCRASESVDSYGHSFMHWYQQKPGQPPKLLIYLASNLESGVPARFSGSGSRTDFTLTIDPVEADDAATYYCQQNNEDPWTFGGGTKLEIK is 1

Ref: patent US20250042994A1
